// provenance: a melting point compilation (Tetko et al.; mined from patent text by program, amines drawn as free bases though some values may be those of a salt)

endpoint: melting point

Here are 5 compounds together with their reported answers.
{"compound": "Cc1ccc(-c2ccc(C(=O)Nc3ccc4cc(CN5CCCC5)ccc4c3)cn2)cc1", "melting point": "260 to 262 °C"}
{"compound": "C=CCC1C=C(c2c[nH]c(-c3ccc(F)cc3)c2-c2ccncc2)CCN1C (stereo not given)", "melting point": "218 to 220 °C"}
{"compound": "Cn1cncc1-c1c(C(CC#N)c2ccc(Cl)cc2)ccc2c1c(-c1cccc(Cl)c1)cc(=O)n2C (stereo not given)", "melting point": "151 °C"}
{"compound": "Cc1ccc(C(=O)Nc2ccc3c(c2NC(=O)c2ccc(C)cc2)C(=O)c2ccccc2C3=O)cc1", "melting point": "227 to 229 °C"}
{"compound": "CC1NC2=NCCN2C1c1ccccc1 (stereo not given)", "melting point": "179 °C"}

Returns the measured melting point for the input compound. Input: `CCOC(=O)c1c(C(C)C)nc2onc(C)c2c1-c1ccc(F)cc1`
90 to 110 °C

---

Reported melting point by item:

Some solved cases for reference:
{"molecule": "C[C@@H]1CN(c2ccc(-c3[nH]nc4c3C(=O)c3c(NC(=O)NN5CCOCC5)cccc3-4)cc2)C[C@H](C)N1", "result": "237 °C"}
{"molecule": "CC(=O)NC1(CCc2ccccc2)CCOC(=O)CC1 (stereo unspecified)", "result": "165 to 167 °C"}
{"molecule": "CC(C(=O)n1c(=O)oc2ccccc21)C1(O)CCCCC1 (stereo unspecified)", "result": "58 to 59 °C"}
{"molecule": "COC(=O)c1cc2c(C)ccc(C)c2n1C(=O)OC", "result": "75 to 80 °C"}
{"molecule": "COC(=O)C1=C(C(=O)OC)C2(c3ccc(Cl)cc3Cl)CCC1O2 (stereo unspecified)", "result": "78 °C"}
{"molecule": "CCOC(=O)CN1C(=O)C(NC(=O)Nc2cccc(C)c2)N=C(C)c2cccc(C)c21 (stereo unspecified)", "result": "230 to 231 °C"}

What value of melting point has been reported for the following molecule? `COCOc1ccccc1-c1cc(-c2ccc(OC)c(C(=O)O)c2)c(C#N)c(NC(=O)c2cccs2)n1`
187 to 189 °C

Param item: CSc1nnc(C(C)C2CC2)c(=O)n1N (stereo unspecified)
111 to 113 °C

Also `CCOc1nc(N)nc2c1CCC2` ?
134 to 135 °C

What would you report for c1ccc(C2CC(n3ccnc3)c3ccccc3N2)cc1 (stereo unspecified) ?
170 to 172 °C

Please answer likewise for `C=CCOc1ccc(S(=O)(=O)Nc2ccc(Cl)cc2C(=O)c2ccccc2Cl)cc1`
96 to 97 °C

Another molecule: `Cc1ccc2nc(-c3cc(C(F)(F)F)nn3-c3ccc(S(C)(=O)=O)cc3)sc2c1`
202 to 204 °C

What about `CCOC(=O)c1nocc1O` ?
59 to 60 °C

Lookup `COc1ccc2[nH]c(C(=O)c3ccc(Cl)cc3)c(CC(=O)O)c2c1`
200 to 204 °C

Follow-up entry: `OCc1c(Cl)nc(C2CCCCC2)n1Cc1ccccc1`
160 to 161 °C

Proceed to `Cc1sc(S(=O)(=O)NC(C)(C)CO)cc1[N+](=O)[O-]`
118 °C

Same question, Cc1cc2c(c3ccc(=O)[nH]c13)OC(CNC=O)C2 (single isomer, unassigned; (+)) this time
282 to 284 °C

Quick one: O=C1Nc2ccccc2C12COc1cc(OC(F)(F)F)ccc12 (stereo unspecified)
180 to 182 °C

Same question, `CON=C(C)c1cccc(S(N)(=O)=O)c1` this time
165 to 166 °C

Same question for `CCNC(=O)C(I)=C(Br)I` please.
154 to 155 °C

Likewise for `O=C(Nc1ccccc1O)c1ccc(CSc2ccc(O)cc2)cc1` ?
152 to 156 °C

---

endpoint: melting point

Guide cases for melting point, answers given:
{"compound": "CCCCC(=O)C(C)(C)N1COC(C)=C(c2ccccc2)C1=O", "result": "157 to 158 °C"}
{"compound": "CCN(CC)Cc1cc(C2(c3cccc(-c4cccnc4F)c3)N=C(N)N(C)C2=O)cn1CCF (stereo unspecified)", "result": "121 to 140 °C"}

Please look up its melting point: CC(CC(=O)O)C(=O)c1ccc(O)cc1 (stereo unspecified)
122 to 126 °C

Again, but for `O=C(NCc1noc(-c2c3ccccc3nn2CCn2ccnc2)n1)c1ccccc1`
167 to 168 °C

---

endpoint: melting point (°C)

{"molecule": "COc1c(N)cc(Cl)c(OC)c1[N+](=O)[O-]", "unit.label": "°C", "melting point": 68}
{"molecule": "O=[N+]([O-])c1nccn1C1CCCO1 (stereo not given)", "unit.label": "°C", "melting point": 91}

---

endpoint: melting point

Please review the entries below; each comes with its answer.
{"molecule": "CS(=O)(=O)c1ccc(-c2oc(-c3ccccc3)nc2-c2ccc(F)cc2)cc1", "melting point": "204 to 205 °C"}
{"molecule": "CCCCc1c(Cc2ccc(-c3ccccc3C(=O)O)cc2)c(=O)nc2n1CC(=O)N2", "melting point": "220 to 222 °C"}
{"molecule": "COc1ccc(C(=O)COc2ccc(C(=O)O)c(O)c2)cc1C12CC3CC(CC(C3)C1)C2", "melting point": "225 to 226 °C"}

For the molecule `CC(=O)NNc1ccc(N=Cc2ccccc2)cc1` , what melting point is on record?
172 to 174 °C

Cool, now `Cc1ccc(Oc2ccc([N+](=O)[O-])cc2-c2ncon2)c(O)c1`
159 to 160 °C

For `Cn1c(=O)c2c(ncn2COC(=O)C(C)(C)C)n(C)c1=O` then?
108 to 110 °C

Next entry: `COC(=O)c1cc(O)c2c(c1)c1ccccc1n2C`
204 to 206 °C

Entry Cc1cccc(NC(=O)N(C)Cc2cccc3c2CN(C2CCC(=O)NC2=O)C3=O)c1 (stereo not given) please
208 to 210 °C

Moving on to CC1(C)CC(=O)CC(=O)C1c1ccccc1 (stereo not given)
133 to 135 °C

Entry `CCCc1c(OCc2ccc(C(=O)O)cc2OC)ccc(C(C)=O)c1O` please
248 to 250 °C

---

endpoint: melting point

Solved cases below.
{"compound": "CC(=O)Nc1ccc(O[C@H](c2ccc([N+](=O)[O-])cc2)[C@@H](O)CO)cc1", "melting point": "110 to 111 °C"}
{"compound": "CC(C)(C)OC(=O)C1CCCN2C(=O)CC(=O)N12 (centres undefined)", "melting point": "121 to 122 °C"}
{"compound": "CN(C(=O)Nc1ccc(Cl)cc1)c1nnc(Cl)s1", "melting point": "250 °C"}
{"compound": "Cc1nn(-c2ccccn2)c2nc3ccccc3c(N3CCOCC3)c12", "melting point": "203 to 205 °C"}

Then there is this compound:
# lookup: melting point of COC(=O)[C@@](C#N)(COCc1ccccc1)[C@H](c1ccccc1OC)c1cccc2ccccc12 (relative stereo)
133 to 134 °C

---

endpoint: melting point

Consider the following illustrative entries.
{"compound": "Cc1cc(Cc2cnc(NCCSCc3ncccc3Br)[nH]c2=O)cnc1C", "endpoint": "melting point", "result": "105 to 107 °C"}
{"compound": "COc1cc(C=NNC(=O)c2ccc(O)c(N)c2)cc(OC)c1OCc1ccc(C(C)C)cc1", "endpoint": "melting point", "result": "174 to 175 °C"}
{"compound": "O=C1CCC(N2C(=O)c3ccc(CNC(=O)Nc4ccccc4)cc3C2=O)C(=O)N1 (stereo unspecified)", "endpoint": "melting point", "result": "288 to 290 °C"}
{"compound": "CCOC(=O)N1CCc2c(sc3nc(-c4ccc(F)cc4)cn23)C1", "endpoint": "melting point", "result": "164 to 166 °C"}
{"compound": "O=C(Nc1c(Cl)cncc1Cl)c1ccc(SCF)c(OC2CCCC2)c1", "endpoint": "melting point", "result": "111 to 113 °C"}
{"compound": "OCc1nc2cnc3ccccc3c2n1Cc1ccccc1", "endpoint": "melting point", "result": "211 to 213 °C"}

Entry under review: `COC(=O)c1cnc2c(O)cccc2c1` . Reported melting point?
140 °C

What do you have for `COC(=O)c1ccc(-c2ccc(OC)c3c2CC(C)(C)O3)cc1` ?
116 to 122 °C

# repeat for `CCCCCCCCOc1ccc(-c2ccc(OCCCCCCCC)c(F)c2)cc1F`
84 °C

Entry `CCOC(=O)CN(C)C=C(Cl)C#N` please
57 °C

Try `CCn1ncc2nc(C(=O)OCC#N)c(C)nc21` next.
83 to 84 °C

---

endpoint: melting point

Worked set:
{"compound": "COC(=O)C1=CCC(=C2CCc3nc4c(nc3C2=O)C(C)(C)CCC4(C)C)C=C1", "melting point": "149 to 151 °C"}
{"compound": "CCOC(=O)C(C(=O)Cc1cc(OC(C)C)c(Cl)cc1F)=C(N)C(F)(F)F", "melting point": "58 to 59 °C"}

Moving on to the next compound.
Entry COC(=O)c1cc2ccoc2nc1C1=NC(C)(C(C)C)C(=O)N1 (stereo not drawn) : reported melting point = ?
134 to 137 °C
